meta.source: the supplement of paper PMC10646978

system: RAW-Dual (murine macrophage reporter line); test: NF-kB reporter (SEAP) activity fold change vs agonist alone; higher = enhanced NF-kB activity; details: modulator concentration 10 µM; agonist: CpG ODN 1826 0.5 ug/mL
Label f if NF-kB reporter falls below 0.8; label t in every other case.

* CC1CCc2c(oc3ccc(NS(=O)(=O)c4ccc(F)cc4)cc23)C1 (configuration not stated) | f
* Cl.Cl.O=C(O)COCCN1CCN([C@H](c2ccccc2)c2ccc(Cl)cc2)CC1 | t
* Cc1cc(OCC(=O)NCCn2nc(C3CC3)ccc2=O)cc(C)c1Cl | t
* COc1ccc(C(=O)ON=C(N)c2ccc(OC)c(OC)c2)cc1OC | t
* CCN(CC)CC#CC(OC)(c1ccccc1)c1ccccc1.Cl | f
* CN1CCCC(n2nc(Cc3ccc(Cl)cc3)c3ccccc3c2=O)CC1.Cl (configuration not stated) | f
* CCc1c2c(nc3ccc(OC(=O)N4CCC(N5CCCCC5)CC4)cc13)-c1cc3c(c(=O)n1C2)COC(=O)[C@]3(O)CC.Cl.O.O.O | t
* COc1ccc2c(c1)c(CC(=O)OCC(=O)O)c(C)n2C(=O)c1ccc(Cl)cc1 | t
* COc1ccc(OC)c(C2CC(c3ccc(Cl)cc3)=NN2S(C)(=O)=O)c1 (configuration not stated) | t
* CCN(CC)c1ccc(-c2noc(CN3CCSCC3)n2)cn1 | t
* CCCCOC(=O)C1=C(C)NC2=C(C(=O)CCC2)C1c1cccc(C(F)(F)F)c1 (configuration not stated) | t
* Cl.O=C1c2cccc3c2[C@H](CCC3)CN1[C@@H]1CN2CCC1CC2 | t
* CC(=O)Oc1cc2c(s1)CCN(C(C(=O)C1CC1)c1ccccc1F)C2 (configuration not stated) | t
* O=C1CCCc2nn(-c3ccccc3)nc21 | t
* O=C1CSC(=S)N1c1ccc(Cl)cc1 | f
* O=S(=O)(Cc1ccccc1)c1nc2ccccc2n1Cc1ccc(Cl)cc1 | f
* COc1ccc(Cn2cc3c(-c4ccc(F)cc4)nnc-3c3cc(OC)c(OC)cc32)cc1 | f
* CC(C)COc1ccc(CNC(=O)N(Cc2ccc(F)cc2)C2CCN(C)CC2)cc1.CC(C)COc1ccc(CNC(=O)N(Cc2ccc(F)cc2)C2CCN(C)CC2)cc1.O=C(O)[C@H](O)[C@@H](O)C(=O)O | f
* CC(C)C(C(=O)Nc1ccc(F)cc1)N1C(=O)c2ccccc2C1=O (configuration not stated) | t
* CSCCC(NC(=O)C(=Cc1ccccc1)NC(=O)c1ccco1)C(=O)O (configuration not stated) | f
* CC(=O)N(C1=C(Nc2ccccc2)C(=O)c2ccccc2C1=O)c1ccccc1 | t
* COc1ccc(Cn2c(SC)nc3c(c2=O)C2(CCCCC2)Cc2ccccc2-3)cc1 | t
* COC(CNS(=O)(=O)c1ccccc1Br)c1ccc(Cl)s1 (configuration not stated) | t
* O=C(C=Cc1ccc2c(c1)OCO2)NCc1ccccn1 | t
* C#CCCCCCCCCCCCC(O)CC(O)COC(C)=O (configuration not stated) | t
* COc1ccc(-c2cc(=O)oc3cc(OCc4cc5c(cc4Cl)OCO5)ccc23)cc1 | f
* Cc1cccc2sc(OC3CN(C(=O)Nc4ccccc4C(F)(F)F)C3)nc12 | t
* COc1cc2nc(N3CCN(C(=O)C4COc5ccccc5O4)CC3)nc(N)c2cc1OC (configuration not stated) | f
* CS(=O)(=O)O.N#CC1(c2ccc(NC(=O)c3cccnc3NCc3ccncc3)cc2)CCCC1 | f
* Cl.c1ccc(CC2=NCCN2)cc1 | t
* c1ccc(CNc2nc(N3CCOCC3)nc(N3CCOCC3)n2)cc1 | t
* CCCOc1ccc(-c2ccc(-c3nc(Cc4ccc(OC)c(OC)c4)no3)cc2)cc1 | f
* NC(=O)CC[C@H](N)C(=O)O | t
* COc1ccc(Nc2nc(N3CCCC(C)C3)nc3[nH]ncc23)cc1 (configuration not stated) | f
* O=C(Nc1nc2cccc(-c3ccc(CN4CCS(=O)(=O)CC4)cc3)n2n1)C1CC1 | f
* CC(=NN1CCN(Cc2cccc3ccccc23)CC1)c1ccc(Cl)cc1 | t
* CC(Oc1ccccc1)C(=O)NCc1cc(-c2ccncc2)n(C2CCCC2)n1 (configuration not stated) | t
* O=C(CCC(=O)NN=Cc1ccc(O)cc1)NN=Cc1ccc(O)cc1 | t
* CCOC(=O)C1=C(C)NC(C)=C(C(=O)OCC)C1c1ccc(Cl)c(Cl)c1 | f
* O=c1cc(-c2ccccc2)oc2cc(O)c(O)c(O)c12 | t
